% Blocking reference
MEASURED TARGET: T1, human CCR8 (human, UniProt P51685 1-355)
T1 construct: Native CCR8 on human PBMC (CCR8+ CD3+ or CCR8+ CD4+ lymphocytes); also called chemokine (C-C motif) receptor 8
T1 sequence (P51685 whole entry): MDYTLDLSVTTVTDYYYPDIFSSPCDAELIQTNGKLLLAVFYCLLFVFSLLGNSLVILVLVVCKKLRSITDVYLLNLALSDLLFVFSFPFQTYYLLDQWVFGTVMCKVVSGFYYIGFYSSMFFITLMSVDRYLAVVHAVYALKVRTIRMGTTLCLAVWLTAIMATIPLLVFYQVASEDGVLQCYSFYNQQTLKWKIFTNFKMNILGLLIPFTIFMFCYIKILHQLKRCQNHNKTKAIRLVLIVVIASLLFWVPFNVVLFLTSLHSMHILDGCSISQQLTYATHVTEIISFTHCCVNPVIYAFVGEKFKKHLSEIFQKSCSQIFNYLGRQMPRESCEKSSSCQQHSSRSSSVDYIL
ASSAY COMMENT: flow blocking, PBMC CCR8+CD4+; competitor PE-AB13
Supply the numeric figure in %, leaving out any unit text.

Recorded results for 2 binders are shown here.
AB2 (antibody, V domains shown, Hybridoma monoclonal; Same VH/VL entries as AB1; also called antibody 2; clone 2) VH: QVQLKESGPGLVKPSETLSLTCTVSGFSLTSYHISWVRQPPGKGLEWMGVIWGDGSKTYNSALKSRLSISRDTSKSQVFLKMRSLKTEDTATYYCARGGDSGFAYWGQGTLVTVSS VL: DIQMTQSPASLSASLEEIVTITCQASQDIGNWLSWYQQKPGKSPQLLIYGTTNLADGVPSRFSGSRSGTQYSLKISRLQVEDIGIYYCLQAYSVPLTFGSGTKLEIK
-6.06
AB5 (antibody, V domains shown, Hybridoma monoclonal; Same VH/VL entries as AB6; also called antibody 5; clone 5) VH: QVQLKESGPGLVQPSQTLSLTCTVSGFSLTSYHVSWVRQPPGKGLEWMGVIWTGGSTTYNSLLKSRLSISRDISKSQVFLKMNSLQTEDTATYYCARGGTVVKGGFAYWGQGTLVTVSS VL: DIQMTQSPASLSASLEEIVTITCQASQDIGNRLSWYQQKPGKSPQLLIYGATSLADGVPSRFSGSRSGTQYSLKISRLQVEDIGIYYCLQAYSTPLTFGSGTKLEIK
27.8

Let's switch to this binder now.
Query: What value of % Blocking has been reported for the following binder? AB3 (antibody, V domains shown, Hybridoma monoclonal; also called antibody 3; clone 3) VH: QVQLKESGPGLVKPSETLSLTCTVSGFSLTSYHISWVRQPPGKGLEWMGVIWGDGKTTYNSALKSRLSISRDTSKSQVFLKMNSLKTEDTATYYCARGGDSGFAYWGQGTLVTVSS VL: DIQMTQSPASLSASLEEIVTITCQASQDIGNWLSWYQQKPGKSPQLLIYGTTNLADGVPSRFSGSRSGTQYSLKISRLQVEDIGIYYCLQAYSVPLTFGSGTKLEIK
Response: 21.2
